- assay.details: Therapeutic index, ratio IC50 for human SW620 cells to IC50 for normal human fibroblasts
- Type: cell-based, SW-620
- assay.conditions: SW620 cells versus normal human fibroblasts, read-out: Ratio IC50
endpoint: selectivity ratio
Give the value as a plain number.

Q: Provide selectivity ratio value for the following compound: CC(=O)N(/N=N/c1ccc([N+](=O)[O-])cc1Cl)c1ccc([N+](=O)[O-])cc1Cl
A: 0.032

###

- assay.details: Stability of the compound in DMSO after 26.25 hrs by LC/MS/MS analysis in presence of 10% FBS
- Format: physicochemical
- assay.conditions: cattle, DMSO with 10% FBS; read-out: Stability
endpoint: remaining at 26.25 h
Please answer in the form of a number followed by its unit of measurement.

Q: Please look at this compound and report its remaining at 26.25 h: CC(=O)N(/N=N/c1ccc([N+](=O)[O-])cc1C(F)(F)F)c1ccc([N+](=O)[O-])cc1C(F)(F)F
A: 51%

Q: Quote remaining at 26.25 h reported for O=C(c1ccccc1)N(/N=N/c1ccc([N+](=O)[O-])cc1C(F)(F)F)c1ccc([N+](=O)[O-])cc1C(F)(F)F please.
A: 63%

Q: Look up remaining at 26.25 h of CC(=O)N(/N=N/c1ccc([N+](=O)[O-])cc1Cl)c1ccc([N+](=O)[O-])cc1Cl and report it.
A: 57%

Q: Specify remaining at 26.25 h for O=C(c1ccccc1)N(/N=N/c1ccc([N+](=O)[O-])cc1Cl)c1ccc([N+](=O)[O-])cc1Cl and stop.
A: 9%

Values from ChEMBL document CHEMBL1806465
